B1: library; a variant is named by its letters at N, in order (parent)
chain: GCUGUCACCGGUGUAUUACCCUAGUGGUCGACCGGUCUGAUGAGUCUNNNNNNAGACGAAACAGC

variants of: B1; test: normalized RNA/DNA level with ligand (relative to sTRSVctl = 100) (log10 (% of sTRSVctl)); ligand: hypoxanthine (xanthine aptamer); higher = less ribozyme self-cleavage, higher mRNA level; conditions: ligand concentration (+) RNA-Seq: 5 mM, HEK293T, reporter: mCherry (pCS4076), ligand present: yes
property measured: normalized RNA/DNA level with ligand (log10)
Please respond with just the number, no unit label.

Example entries begin here.
sequence_input="GCUGUCACCGGUGUAUUACCCUAGUGGUCGACCGGUCUGAUGAGUCUGACGCGAGACGAAACAGC [GACGCG]" readout_value=1.87
sequence_input="GCUGUCACCGGUGUAUUACCCUAGUGGUCGACCGGUCUGAUGAGUCUGAAGUAAGACGAAACAGC [GAAGUA]" readout_value=1.88
sequence_input="GCUGUCACCGGUGUAUUACCCUAGUGGUCGACCGGUCUGAUGAGUCUAUCUAAAGACGAAACAGC [AUCUAA]" readout_value=1.9

Quick one: normalized RNA/DNA level with ligand (log10) for GCUGUCACCGGUGUAUUACCCUAGUGGUCGACCGGUCUGAUGAGUCUGUCGAGAGACGAAACAGC [GUCGAG] ?
1.81

# input variant: GCUGUCACCGGUGUAUUACCCUAGUGGUCGACCGGUCUGAUGAGUCUGGUAUCAGACGAAACAGC [GGUAUC] ; wanted: its normalized RNA/DNA level with ligand (log10)
1.96
